Target: 6-Phosphoglucosamine synthetase (GlmS) (Staphylococcus aureus)
Sequence (Q5HE49 2-601): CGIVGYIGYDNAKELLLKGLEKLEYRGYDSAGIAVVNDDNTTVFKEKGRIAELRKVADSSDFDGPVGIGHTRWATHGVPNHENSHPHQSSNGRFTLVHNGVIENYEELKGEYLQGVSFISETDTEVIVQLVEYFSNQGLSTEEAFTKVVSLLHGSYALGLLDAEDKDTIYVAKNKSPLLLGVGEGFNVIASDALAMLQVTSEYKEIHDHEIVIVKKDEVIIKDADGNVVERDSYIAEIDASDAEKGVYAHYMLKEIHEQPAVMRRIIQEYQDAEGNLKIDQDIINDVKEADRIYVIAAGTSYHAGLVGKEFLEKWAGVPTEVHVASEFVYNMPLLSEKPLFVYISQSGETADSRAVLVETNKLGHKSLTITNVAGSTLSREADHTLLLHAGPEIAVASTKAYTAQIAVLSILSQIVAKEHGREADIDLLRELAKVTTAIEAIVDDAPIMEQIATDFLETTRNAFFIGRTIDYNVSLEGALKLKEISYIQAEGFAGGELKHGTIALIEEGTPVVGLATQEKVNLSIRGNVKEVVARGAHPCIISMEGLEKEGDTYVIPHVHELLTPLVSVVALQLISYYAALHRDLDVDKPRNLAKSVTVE
Assay: SPR with purified GlmS; also thermal stability shift and enzymatic inhibition (IC50 […])
Type: binding
quantity_kind: pKd
// field semantics: pKd = negative decimal log of concentration (mol/L)

pKd recorded for this compound, O=C(c1ccc(C(F)(F)F)cc1O)c1[nH]c(Cl)c(Cl)c1-n1c(C(=O)c2ccc(C(F)(F)F)cc2O)cc(Cl)c1Cl [MA-D1] , is 6.41

Reference for the values: paper PMC11613329
